- study.target: Prolyl hydroxylase EGLN3 (Homo sapiens)
- Sequence (Q9H6Z9 whole entry): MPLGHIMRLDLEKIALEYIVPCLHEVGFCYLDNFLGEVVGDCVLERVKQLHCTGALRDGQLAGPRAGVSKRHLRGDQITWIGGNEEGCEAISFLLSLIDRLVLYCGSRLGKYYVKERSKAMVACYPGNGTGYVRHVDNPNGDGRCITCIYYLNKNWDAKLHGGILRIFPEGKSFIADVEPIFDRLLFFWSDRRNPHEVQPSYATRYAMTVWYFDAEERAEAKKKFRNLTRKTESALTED
- protocol.text: Inhibition of human recombinant HIF PHD3
measured.property: Ki (µM)
Form entry: value (µM) — number only.

// query Provide the documented Ki with Prolyl hydroxylase EGLN3 (Homo sapiens) as the system for O=C(O)c1ccnc(C(=O)O)c1
// result 7

====

- protocol.text: Inhibition of 2-oxoglutarate-dependent human JMJD2E preincubated for 30 mins by FDH coupled assay
measured.property: IC50 (µM)

1. CC(/C=C/C(=O)NO)=C\[C@@H](C)C(=O)c1ccc(N(C)C)cc1 :: 28

a: O=C(O)C(=O)N[C@H](CCc1ccccc1)C(=O)O
b: O=C(O)CCC(=O)O
c: O=C(O)/C=C/C(=O)O
d: O=C(NO)c1cccc(O)c1
// query Please rank these compounds by IC50 in descending order. Put the labels in the order asked and list them.
// result c, b, a, d
(c: 2300 µM, b: 320 µM, a: 39 µM, d: 4.8 µM)
